# Test system: MET
# protocol.text: MET biochemical kinase assay
# Parameters: species or system human; concentration or dose not given beside the values
Give measured Met Kinase % Inhibition for each item. Keep answers brief.
Numbers only, in %.

Cc1c(Br)ccc2c1C(=Cc1cccc(F)c1O)C(=O)N2; 93.2
O=C1Nc2ccc(CCCl)cc2C1=Cc1c[nH]c(=O)[nH]c1=O; 19.5

Read the next record carefully.
Exercise: # Met Kinase % Inhibition lookup, item `O=C1Nc2ccc(CCCl)cc2C1=Cc1cccc(F)c1O`
Solution: 82.2

###

# Test system: MET
# protocol.text: MET biochemical kinase assay
# Set-up: species or system human; concentration or dose not given beside the values
Give Met Kinase % Inhibition for every item shown.
Record the result as a number with its unit.

Solved cases below.
CC(C)(C)c1cc(C=C2C(=O)Nc3ccc(S(=O)(=O)N4CCOCC4)cc32)cc(Br)c1OCc1ccccc1; 76.6%
CCOc1cc(C=C2C(=O)Nc3ccc(S(=O)(=O)N4CCOCC4)cc32)ccc1O; 49.2%
O=C1Nc2c(Br)cc(Br)cc2C1=Cc1ccc(F)cc1; 35.6%
O=C1Nc2ccc(I)cc2C1=Cc1c(O)cc(O)cc1O; 40.1%
CNS(=O)(=O)c1ccc2c(c1)C(=C1C(=O)N(C)c3ccccc31)C(=O)N2; 21.1%

Answer for every listed entry: what is its Met Kinase % Inhibition? The entries follow.
1. COc1cc(O)ccc1C=C1C(=O)Nc2ccc(I)cc21
2. CSc1ccc(C=C2C(=O)Nc3c(Br)cc(Br)cc32)cc1
3. O=C1Nc2c(Br)cc(Br)cc2C1=Cc1c[nH]c2ccccc12
4. COc1cc(Br)cc(C=C2C(=O)Nc3ccc(I)cc32)c1O
5. COc1ccc(OC)c(C=C2C(=O)Nc3c(Br)cc(Br)cc32)c1
6. COc1cccc(C=C2C(=O)Nc3ccc(S(=O)(=O)N4CCOCC4)cc32)c1O
7. CNS(=O)(=O)c1ccc2c(c1)C(=Cc1ccc(N3CCCC3)cc1)C(=O)N2

Solution:
1. 53.3%
2. 45.4%
3. 31.7%
4. 65.5%
5. 25.6%
6. 78.3%
7. 36.1%

Return reported Met Kinase % Inhibition values for all items listed beneath this line.
1. O=C1Nc2ccc(S(=O)(=O)N3CCOCC3)cc2C1=Cc1cc2c([nH]1)CCCC2
2. COC(=O)c1[nH]c(C)c(C=C2C(=O)Nc3ccc(I)cc32)c1C(=O)OC
3. COc1cc(N(C)C)ccc1C=C1C(=O)Nc2ccc(S(=O)(=O)Nc3ccc(C(F)(F)F)cc3)cc21
4. O=C1Nc2ccc(I)cc2C1=Cc1ccc(C(=O)O)cc1
5. Cc1c(Br)ccc2c1C(=Cc1cc(O)c(O)c(Br)c1)C(=O)N2
6. CCOC(=O)c1cc(C=C2C(=O)Nc3c(Br)cc(Br)cc32)oc1C

Solution:
["67.8%", "53.7%", "53.4%", "67.2%", "91.9%", "61.3%"]

For each of the compounds below, note its Met Kinase % Inhibition.
1. CNS(=O)(=O)c1ccc2c(c1)C(=Cc1ccc[nH]1)C(=O)N2
2. CCn1c2ccccc2c2cc(C=C3C(=O)Nc4ccc(CCCl)cc43)ccc21
3. O=C1Nc2ccc(S(=O)(=O)Nc3ccc(C(F)(F)F)cc3)cc2C1=Cc1ccc(F)cc1F
4. CC(C)(C)c1ccc(C=C2C(=O)Nc3c(Br)cc(Br)cc32)cc1

Solution:
1: 29.1%; 2: 15.2%; 3: 71.6%; 4: 55.4%

###

# assayed.system: UniProt P09619
# Sequence (P09619 33-1106, species assumed): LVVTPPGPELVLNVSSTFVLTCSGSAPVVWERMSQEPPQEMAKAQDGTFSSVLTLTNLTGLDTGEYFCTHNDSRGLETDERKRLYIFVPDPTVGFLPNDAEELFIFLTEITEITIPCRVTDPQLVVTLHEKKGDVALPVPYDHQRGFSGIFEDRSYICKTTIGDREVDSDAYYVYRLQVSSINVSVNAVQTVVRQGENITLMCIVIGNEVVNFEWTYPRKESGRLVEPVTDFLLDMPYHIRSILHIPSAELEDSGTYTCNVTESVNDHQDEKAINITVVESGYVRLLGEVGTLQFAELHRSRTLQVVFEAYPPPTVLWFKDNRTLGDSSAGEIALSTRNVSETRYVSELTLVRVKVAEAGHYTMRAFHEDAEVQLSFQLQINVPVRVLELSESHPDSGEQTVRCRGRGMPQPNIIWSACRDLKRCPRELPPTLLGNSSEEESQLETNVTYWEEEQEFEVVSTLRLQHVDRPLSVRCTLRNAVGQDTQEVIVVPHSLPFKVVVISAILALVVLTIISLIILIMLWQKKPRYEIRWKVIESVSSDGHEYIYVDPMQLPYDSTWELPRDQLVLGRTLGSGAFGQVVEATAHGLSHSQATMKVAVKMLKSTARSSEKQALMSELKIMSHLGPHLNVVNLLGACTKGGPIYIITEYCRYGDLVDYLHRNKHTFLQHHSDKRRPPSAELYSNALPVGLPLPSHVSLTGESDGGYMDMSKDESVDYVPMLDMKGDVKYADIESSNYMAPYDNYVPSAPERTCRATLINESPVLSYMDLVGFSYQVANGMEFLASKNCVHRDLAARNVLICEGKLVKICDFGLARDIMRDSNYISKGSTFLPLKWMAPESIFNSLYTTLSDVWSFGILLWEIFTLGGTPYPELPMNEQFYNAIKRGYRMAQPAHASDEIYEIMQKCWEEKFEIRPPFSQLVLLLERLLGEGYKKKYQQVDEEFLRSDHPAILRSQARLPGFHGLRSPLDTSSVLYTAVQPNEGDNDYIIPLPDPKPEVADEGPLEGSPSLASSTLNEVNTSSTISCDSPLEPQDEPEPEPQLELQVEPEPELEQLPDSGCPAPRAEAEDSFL
# protocol.text: PDGF-R ELISA
# Assay type: cell-based
measured.parameter: PDGF Kinase %Inhibition

Here's what some known entries look like.
Cc1c(Br)ccc2c1C(=Cc1c[nH]c(=O)[nH]c1=O)C(=O)N2 [10731/C08]; -3.0%
O=C1Nc2c(Br)cc(Br)cc2C1=Cc1ccc([N+](=O)[O-])c(O)c1 [10724/A04]; 5.0%
O=C1Nc2c(Br)cc(Br)cc2C1=Cc1cccnc1 [10729/A08]; -23.4%
O=C1Nc2ccc(CCCl)cc2C1=Cc1cc2ccccc2nc1Cl [10730/G08]; 20.3%

For each listed entry, give its PDGF Kinase %Inhibition.
1. CC(C)(C)c1cc(C=C2C(=O)Nc3ccc(I)cc32)cc(I)c1OCc1ccccc1 [10733/B02]
2. CNS(=O)(=O)c1ccc2c(c1)C(=Cc1cc(C)c(C)o1)C(=O)N2 [10730/D11]
3. COc1cc(C=C2C(=O)Nc3c(Br)cc(Br)cc32)cc(OC)c1 [10728/A04]
4. O=C1Nc2ccc(CCCl)cc2C1=Cc1cc(O)c2c(c1O)CCCC2 [10726/G07]
5. Cc1c(Br)ccc2c1C(=Cc1cc(C(C)(C)C)c(OCc3ccccc3)c(C(C)(C)C)c1)C(=O)N2 [10733/C05]
6. CNS(=O)(=O)c1ccc2c(c1)C(=Cc1cccc(OC)c1O)C(=O)N2 [10723/D03]
7. O=C1Nc2ccc(CCCl)cc2C1=Cc1c(Br)cnn1-c1ccc(Cl)cc1 [10725/G10]

Solution:
1. 14.7%
2. -0.7%
3. 15.6%
4. -107.6%
5. 11.1%
6. 8.2%
7. 44.7%

###

# Test system: MET
# protocol.text: MET biochemical kinase assay
# Set-up: species or system human; concentration or dose not given beside the values
measured.parameter: Met Kinase % Inhibition (%)
One number for each entry, in %.

Worked cases, Met Kinase % Inhibition given:
CC(C)(C)c1cc(C=C2C(=O)Nc3ccc(S(=O)(=O)Nc4ccc(C(F)(F)F)cc4)cc32)cc(I)c1OCc1ccccc1 [10733/E02]; 60.5
COc1ccc(OC)c(C=C2C(=O)Nc3ccc(I)cc32)c1 [10728/B02]; 61.2
CC(=O)n1cc(C=C2C(=O)Nc3ccc(Br)c(C)c32)c2ccccc21 [10730/C05]; 46.1

I would be grateful if you could provide Met Kinase % Inhibition for each of the following entries.
1. COc1c(C(C)C)cc(C=C2C(=O)Nc3ccc(Br)c(C)c32)cc1C(C)C [10732/C03]
2. O=C1Nc2ccc(S(=O)(=O)Nc3ccc(C(F)(F)F)cc3)cc2C1=Cc1c(O)cc(O)cc1O [10722/E03]
3. COc1cccc(C=C2C(=O)Nc3ccc(Br)c(C)c32)c1OC [10727/C11]
4. COc1cc(C)cc(O)c1C=C1C(=O)Nc2ccc(Br)c(C)c21 [10725/C06]
5. CCOc1ccc(C=C2C(=O)Nc3c(Br)cc(Br)cc32)cc1OC [10719/A02]

Solution:
[14.0, 88.4, 14.5, 54.7, 40.9]

I have 2 compounds here; please give me Met Kinase % Inhibition for each one.
1. O=C1Nc2ccc(S(=O)(=O)Nc3ccc(C(F)(F)F)cc3)cc2C1=Cc1ccc(O)cc1O [10723/E08]
2. CNS(=O)(=O)c1ccc2c(c1)C(=Cc1cccc([N+](=O)[O-])c1)C(=O)N2 [10719/D10]

Solution:
[89.3, 22.3]

###

# assayed.system: FLK-1 receptor (Mus musculus, UniProt P35918)
# Construct: expressed in transfected cells; host or cells: NIH3T3 C7#3
# Sequence (P35918 20-1345): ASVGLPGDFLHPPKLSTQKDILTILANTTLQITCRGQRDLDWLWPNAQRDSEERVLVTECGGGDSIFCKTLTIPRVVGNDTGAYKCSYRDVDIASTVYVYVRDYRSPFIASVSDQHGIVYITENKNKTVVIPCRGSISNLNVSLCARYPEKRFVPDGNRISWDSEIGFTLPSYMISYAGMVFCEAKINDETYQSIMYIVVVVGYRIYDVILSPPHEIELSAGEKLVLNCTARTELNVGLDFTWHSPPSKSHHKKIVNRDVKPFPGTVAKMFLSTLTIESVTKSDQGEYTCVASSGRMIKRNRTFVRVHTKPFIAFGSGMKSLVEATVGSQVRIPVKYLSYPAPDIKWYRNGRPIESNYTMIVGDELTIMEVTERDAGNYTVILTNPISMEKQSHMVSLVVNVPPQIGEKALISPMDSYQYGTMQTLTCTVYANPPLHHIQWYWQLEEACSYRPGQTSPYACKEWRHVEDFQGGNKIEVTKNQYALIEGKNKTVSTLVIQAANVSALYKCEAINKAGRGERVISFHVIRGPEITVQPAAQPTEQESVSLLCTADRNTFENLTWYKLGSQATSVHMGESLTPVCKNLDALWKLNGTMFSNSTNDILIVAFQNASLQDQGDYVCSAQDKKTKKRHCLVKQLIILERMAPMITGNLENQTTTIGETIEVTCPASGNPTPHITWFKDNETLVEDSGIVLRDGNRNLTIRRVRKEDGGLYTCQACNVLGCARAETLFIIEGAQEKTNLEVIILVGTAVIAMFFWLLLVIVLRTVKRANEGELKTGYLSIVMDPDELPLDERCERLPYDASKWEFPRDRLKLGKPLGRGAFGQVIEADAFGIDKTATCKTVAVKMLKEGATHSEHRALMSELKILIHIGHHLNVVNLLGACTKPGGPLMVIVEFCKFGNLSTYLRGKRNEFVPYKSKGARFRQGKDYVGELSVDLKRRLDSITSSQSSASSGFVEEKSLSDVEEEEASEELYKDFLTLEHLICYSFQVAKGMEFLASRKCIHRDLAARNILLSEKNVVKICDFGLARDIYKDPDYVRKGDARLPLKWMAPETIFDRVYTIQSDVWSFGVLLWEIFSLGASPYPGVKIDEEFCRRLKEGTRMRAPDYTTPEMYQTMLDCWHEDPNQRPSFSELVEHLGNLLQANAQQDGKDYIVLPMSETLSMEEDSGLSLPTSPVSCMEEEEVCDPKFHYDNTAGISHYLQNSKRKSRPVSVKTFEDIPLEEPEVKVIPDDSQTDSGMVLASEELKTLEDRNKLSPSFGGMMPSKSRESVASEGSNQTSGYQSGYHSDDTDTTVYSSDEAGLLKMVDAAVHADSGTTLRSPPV
# protocol.text: FLK-1 ELISA (kinase activity of the FLK-1 receptor in FLK-1/NIH3T3 cells, VEGF stimulated)
# Format: cell-based
Provide the recorded Fik Kinase %Inhibition for the entries that follow.

Cc1c(O)ccc(C=C2C(=O)Nc3ccc(S(=O)(=O)N4CCOCC4)cc32)c1O [10718/F09]; -3.0%

Record Fik Kinase %Inhibition for all entries; do not skip any.
1. CSc1ccc(C=C2C(=O)Nc3ccc(I)cc32)s1 [10720/B07]
2. CC(C)(C)c1cc(C=C2C(=O)Nc3ccc(S(=O)(=O)N4CCOCC4)cc32)cc(Br)c1O [10721/F10]
3. CCOc1ccc(C=C2C(=O)Nc3ccc(S(=O)(=O)N4CCOCC4)cc32)cc1OC [10719/F02]
4. Cc1c(Br)ccc2c1C(=Cc1ccc(Cl)c([N+](=O)[O-])c1)C(=O)N2 [10718/C08]

Solution:
12.0%
49.6%
28.6%
19.6%

Please go through the list and note Fik Kinase %Inhibition for each compound.
1. Cc1c(Br)ccc2c1C(=Cc1c[nH]c3ccccc13)C(=O)N2 [10717/C06]
2. O=C1Nc2ccc(S(=O)(=O)N3CCOCC3)cc2C1=Cc1ccccc1O [10720/F05]
3. CSc1ccc(C=C2C(=O)Nc3ccc(S(=O)(=O)Nc4ccc(C(F)(F)F)cc4)cc32)cc1 [10729/E04]
4. O=C1Nc2ccc(CCCl)cc2C1=Cc1cccn1-c1ccc(Cl)cc1 [10724/G09]

Solution:
7.6%
-3.6%
9.7%
9.1%

Answer for every listed entry: what is its Fik Kinase %Inhibition? The entries follow.
1. O=C1Nc2c(Br)cc(Br)cc2C1=Cc1ccc2c(c1)Cc1ccccc1-2 [10728/A06]
2. CN(C)c1ccc(C=C2C(=O)Nc3ccc(I)cc32)cc1 [10719/B08]
3. Cc1c(Br)ccc2c1C(=Cc1cccn1-c1ccc(Cl)cc1)C(=O)N2 [10724/C09]

Solution:
1. -10.4%
2. 4.0%
3. 9.3%

Look up Fik Kinase %Inhibition for the entries below, preserving their order.
1. COc1c(C)cc(C=C2C(=O)Nc3ccc(Br)c(C)c32)cc1C [10733/C06]
2. O=C1Nc2ccc(S(=O)(=O)N3CCOCC3)cc2C1=Cc1ccc(O)c(O)c1O [10723/F02]
3. O=C1Nc2ccc(S(=O)(=O)N3CCOCC3)cc2C1=Cc1c(F)cc(F)cc1F [10720/F02]
4. CCOC(=O)c1cc(C=C2C(=O)Nc3ccc(S(=O)(=O)Nc4ccc(C(F)(F)F)cc4)cc32)oc1C [10718/E06]

Solution:
1. 4.7%
2. 10.3%
3. 9.1%
4. 15.4%

Please go through the list and note Fik Kinase %Inhibition for each compound.
1. COc1cc(C=C2C(=O)Nc3ccc(I)cc32)cc(OC)c1 [10728/B04]
2. Cc1c(Br)ccc2c1C(=Cc1ccc3c(c1)Cc1ccccc1-3)C(=O)N2 [10728/C06]
3. O=C1Nc2ccc(CCCl)cc2C1=Cc1ccc(O)c(Br)c1 [10734/G09]
4. CCOC(=O)c1[nH]c(C=C2C(=O)Nc3ccc(CCCl)cc32)c(C(=O)OC)c1C [10726/G03]
5. COc1ccc2ccccc2c1C=C1C(=O)Nc2c(Br)cc(Br)cc21 [10729/A02]
6. C=C(C)C1CC=C(C=C2C(=O)Nc3ccc(S(=O)(=O)N4CCOCC4)cc32)CC1 (stereo not drawn) [10731/F04]
7. O=C1Nc2ccc(I)cc2C1=Cc1ccc(C(=O)O)cc1 [10722/B05]
8. COC(=O)Cc1c(Cl)[nH]c(C=C2C(=O)Nc3c(Br)cc(Br)c(C)c32)c1C(=O)OC [10725/A09]

Solution:
1. -6.0%
2. 8.4%
3. 8.5%
4. 11.3%
5. 15.5%
6. 24.5%
7. 18.5%
8. -13.9%

Record Fik Kinase %Inhibition per entry; entries follow.
1. O=C1Nc2ccc(I)cc2C1=Cc1cc(Br)cc(Br)c1O [10734/B07]
2. O=C1Nc2ccc(S(=O)(=O)N3CCOCC3)cc2C1=Cc1ccc[nH]1 [10717/F09]
3. COc1cc(N(C)C)ccc1C=C1C(=O)Nc2ccc(Br)c(C)c21 [10728/C05]
4. Cc1cc2occ(C=C3C(=O)Nc4c(Br)cc(Br)cc43)c(=O)c2cc1C [10731/A03]
5. O=C1Nc2c(Br)cc(Br)cc2C1=Cc1coc2ccc(Cl)cc2c1=O [10730/A06]
6. O=C1Nc2ccc(S(=O)(=O)N3CCOCC3)cc2C1=Cc1cccc(F)c1O [10734/F08]

Solution:
1: 9.1%; 2: -13.3%; 3: -21.7%; 4: 2.5%; 5: -7.0%; 6: 4.8%

Batch: Fik Kinase %Inhibition for all items listed.
1. Cc1c(Br)ccc2c1C(=Cc1cc(O)ccc1O)C(=O)N2 [10727/C10]
2. COc1cccc(C=C2C(=O)Nc3ccc(Br)c(C)c32)c1O [10723/C03]
3. COc1ccc2ccccc2c1C=C1C(=O)Nc2ccc(Br)c(C)c21 [10729/C02]

Solution:
1: -35.3%; 2: -3.1%; 3: 6.0%
